Tested on: Escherichia coli TOP10
assay.procedure: shrunken log2 fold change of peptide-encoding DNA abundance (4.5 h post-induction vs induction); higher = less antimicrobial activity (less host growth inhibition)
measurement.parameters: time post-induction: 4.5 h; library: site-saturation at positions 5, 18, 19, 20
Mark Criterion met for reported shrunken log2 fold change of -0.03 or greater; mark Criterion not met for anything smaller.

# ordered.residues, target.system, group
data = [
    ("RRIRSRPPRLPRPRPRPRGGPRP", "Escherichia coli TOP10", "Criterion met"),
    ("RRIRERPPRLPRPRPRPTQAPRP", "Escherichia coli TOP10", "Criterion met"),
    ("RRIRVRPPRLPRPRPRPQANPRP", "Escherichia coli TOP10", "Criterion met"),
    ("RRIRSRPPRLPRPRPRPGEEPRP", "Escherichia coli TOP10", "Criterion met"),
    ("RRIRIRPPRLPRPRPRPVSDPRP", "Escherichia coli TOP10", "Criterion not met"),
    ("RRIRTRPPRLPRPRPRPHDRPRP", "Escherichia coli TOP10", "Criterion met"),
    ("RRIRKRPPRLPRPRPRPEADPRP", "Escherichia coli TOP10", "Criterion met"),
    ("RRIRERPPRLPRPRPRPVIKPRP", "Escherichia coli TOP10", "Criterion not met"),
    ("RRIRDRPPRLPRPRPRPSHFPRP", "Escherichia coli TOP10", "Criterion not met"),
    ("RRIRCRPPRLPRPRPRPEQMPRP", "Escherichia coli TOP10", "Criterion met"),
    ("RRIRYRPPRLPRPRPRPWSVPRP", "Escherichia coli TOP10", "Criterion not met"),
    ("RRIRFRPPRLPRPRPRPGNRPRP", "Escherichia coli TOP10", "Criterion met"),
    ("RRIRHRPPRLPRPRPRPAWGPRP", "Escherichia coli TOP10", "Criterion met"),
    ("RRIRARPPRLPRPRPRPIQIPRP", "Escherichia coli TOP10", "Criterion not met"),
    ("RRIRGRPPRLPRPRPRPKARPRP", "Escherichia coli TOP10", "Criterion met"),
]

* * *

Below is a list of entries, each paired with its recorded shrunken log2 fold change value.
System: Escherichia coli TOP10
assay.procedure: shrunken log2 fold change of peptide-encoding DNA abundance (4.5 h post-induction vs induction); higher = less antimicrobial activity (less host growth inhibition)
measurement.parameters: time post-induction: 4.5 h; library: site-saturation at positions 5, 18, 19, 20

# ordered.residues, shrunken log2 fold change
records = [
    ("RRIRPRPPRLPRPRPRPRNLPRP", 0.067),
    ("RRIRSRPPRLPRPRPRPREIPRP", 0.426),
    ("RRIRIRPPRLPRPRPRPGVGPRP", 0.435),
    ("RRIRSRPPRLPRPRPRPESDPRP", 0.306),
    ("RRIRARPPRLPRPRPRPLPGPRP", 0.467),
    ("RRIRIRPPRLPRPRPRPSAPPRP", -0.00138),
    ("RRIRARPPRLPRPRPRPRGIPRP", 0.488),
    ("RRIRKRPPRLPRPRPRPCATPRP", 0.242),
]

* * *

shrunken log2 fold change: recorded values
System: Escherichia coli TOP10
assay.procedure: shrunken log2 fold change of peptide-encoding DNA abundance (4.5 h post-induction vs induction); higher = less antimicrobial activity (less host growth inhibition)
measurement.parameters: time post-induction: 4.5 h; library: site-saturation at positions 5, 18, 19, 20
value.kind: shrunken log2 fold change

# ordered.residues, target.system, value.kind, observed.measurement
records = [
    ("RRIRFRPPRLPRPRPRPCIIPRP", "Escherichia coli TOP10", "shrunken log2 fold change", -0.568),
    ("RRIRDRPPRLPRPRPRPQHKPRP", "Escherichia coli TOP10", "shrunken log2 fold change", -0.217),
    ("RRIRFRPPRLPRPRPRPCFKPRP", "Escherichia coli TOP10", "shrunken log2 fold change", -0.426),
    ("RRIRGRPPRLPRPRPRPSIFPRP", "Escherichia coli TOP10", "shrunken log2 fold change", 0.415),
    ("RRIRVRPPRLPRPRPRPWDQPRP", "Escherichia coli TOP10", "shrunken log2 fold change", -0.00149),
    ("RRIRGRPPRLPRPRPRPVDFPRP", "Escherichia coli TOP10", "shrunken log2 fold change", 0.408),
    ("RRIRYRPPRLPRPRPRPGNPPRP", "Escherichia coli TOP10", "shrunken log2 fold change", -0.377),
    ("RRIRRRPPRLPRPRPRPIWPPRP", "Escherichia coli TOP10", "shrunken log2 fold change", 0.664),
    ("RRIRLRPPRLPRPRPRPKDTPRP", "Escherichia coli TOP10", "shrunken log2 fold change", 0.0949),
    ("RRIRNRPPRLPRPRPRPVTSPRP", "Escherichia coli TOP10", "shrunken log2 fold change", -0.469),
    ("RRIRMRPPRLPRPRPRPFWIPRP", "Escherichia coli TOP10", "shrunken log2 fold change", 0.00154),
    ("RRIRRRPPRLPRPRPRPCVMPRP", "Escherichia coli TOP10", "shrunken log2 fold change", 0.113),
    ("RRIRTRPPRLPRPRPRPELHPRP", "Escherichia coli TOP10", "shrunken log2 fold change", 0.396),
    ("RRIRKRPPRLPRPRPRPVAWPRP", "Escherichia coli TOP10", "shrunken log2 fold change", 0.315),
    ("RRIRWRPPRLPRPRPRPNPFPRP", "Escherichia coli TOP10", "shrunken log2 fold change", 0.208),
]

* * *

Test system: Escherichia coli TOP10
assay.procedure: shrunken log2 fold change of peptide-encoding DNA abundance (4.5 h post-induction vs induction); higher = less antimicrobial activity (less host growth inhibition)
measurement.parameters: time post-induction: 4.5 h; library: site-saturation at positions 5, 18, 19, 20
Tick class 1 if shrunken log2 fold change is 0.07 or greater. Tick class 0 if shrunken log2 fold change is less than 0.07.

# ordered.residues, group
measured = [
    ("RRIRSRPPRLPRPRPRPRMLPRP", "class 0"),
    ("RRIRNRPPRLPRPRPRPQSNPRP", "class 0"),
    ("RRIRIRPPRLPRPRPRPNKMPRP", "class 0"),
    ("RRIRTRPPRLPRPRPRPIYHPRP", "class 0"),
    ("RRIRLRPPRLPRPRPRPQPEPRP", "class 1"),
    ("RRIRIRPPRLPRPRPRPGGPPRP", "class 0"),
    ("RRIRFRPPRLPRPRPRPVLAPRP", "class 1"),
    ("RRIRCRPPRLPRPRPRPGRDPRP", "class 1"),
    ("RRIRRRPPRLPRPRPRPCWMPRP", "class 1"),
    ("RRIRQRPPRLPRPRPRPHEFPRP", "class 0"),
    ("RRIRFRPPRLPRPRPRPIEIPRP", "class 0"),
    ("RRIRIRPPRLPRPRPRPGSVPRP", "class 0"),
    ("RRIRMRPPRLPRPRPRPNCQPRP", "class 1"),
    ("RRIRNRPPRLPRPRPRPYNCPRP", "class 0"),
    ("RRIRMRPPRLPRPRPRPLQMPRP", "class 1"),
    ("RRIRRRPPRLPRPRPRPESWPRP", "class 1"),
    ("RRIRIRPPRLPRPRPRPMWYPRP", "class 0"),
    ("RRIRFRPPRLPRPRPRPKRRPRP", "class 0"),
    ("RRIRVRPPRLPRPRPRPANDPRP", "class 0"),
    ("RRIRKRPPRLPRPRPRPMGAPRP", "class 1"),
    ("RRIRSRPPRLPRPRPRPPEGPRP", "class 1"),
    ("RRIRDRPPRLPRPRPRPYSCPRP", "class 0"),
    ("RRIRQRPPRLPRPRPRPNIDPRP", "class 0"),
    ("RRIRVRPPRLPRPRPRPDVGPRP", "class 0"),
    ("RRIRDRPPRLPRPRPRPYIGPRP", "class 0"),
    ("RRIRDRPPRLPRPRPRPHQLPRP", "class 0"),
    ("RRIRRRPPRLPRPRPRPTQLPRP", "class 1"),
    ("RRIRERPPRLPRPRPRPLVFPRP", "class 0"),
    ("RRIRDRPPRLPRPRPRPQRSPRP", "class 0"),
    ("RRIRDRPPRLPRPRPRPFSYPRP", "class 0"),
    ("RRIRVRPPRLPRPRPRPKIVPRP", "class 1"),
]

* * *

Tested on: Escherichia coli TOP10;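 note: peptides expressed intracellularly from a pBAD plasmid library in pooled LB shake-flask culture, induced with 0.3% L-arabinose, DNA abundance read by NGS, three biological replicates, DESeq2 with apeglm shrinkage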
assay.procedure: shrunken log2 fold change of peptide-encoding DNA abundance (4.5 h post-induction vs induction); higher = less antimicrobial activity (less host growth inhibition)
measurement.parameters: time post-induction: 4.5 h; library: site-saturation at positions 5, 18, 19, 20

# ordered.residues, shrunken log2 fold change
data = [
    ("RRIRIRPPRLPRPRPRPDILPRP", -0.354),
    ("RRIRQRPPRLPRPRPRPDIAPRP", 0.111),
    ("RRIRFRPPRLPRPRPRPFIHPRP", -0.724),
    ("RRIRWRPPRLPRPRPRPRSIPRP", -0.006),
    ("RRIRQRPPRLPRPRPRPWSVPRP", -0.0201),
    ("RRIRRRPPRLPRPRPRPTMYPRP", 0.0102),
    ("RRIRGRPPRLPRPRPRPIIGPRP", -0.0822),
    ("RRIRHRPPRLPRPRPRPGAQPRP", 0.187),
    ("RRIRLRPPRLPRPRPRPQGCPRP", 0.0879),
    ("RRIRHRPPRLPRPRPRPGRSPRP", 3.99),
    ("RRIRKRPPRLPRPRPRPGDEPRP", 0.128),
    ("RRIRRRPPRLPRPRPRPITTPRP", 0.032),
    ("RRIRWRPPRLPRPRPRPSYTPRP", -0.656),
    ("RRIRRRPPRLPRPRPRPGKAPRP", 0.112),
    ("RRIRNRPPRLPRPRPRPARTPRP", 0.139),
]
